Structures can show the parent of a compound that is named as a salt.
PARAMETER MEASURED: flash point (°C)
Give the value, in units of °C, as a plain number.

Q) So what does the record say about flash point for CC(C)OC=O [propan-2-yl formate] ?
A) -6.00

Q) So what does the record say about flash point for O=c1ccc2ccccc2o1 ?
A) 151.00

Q) So what does the record say about flash point for C1=CCCCC1 ?
A) -12.00

Q) So what does the record say about flash point for Cc1ccc(C)cc1 ?
A) 27.00

Q) So what does the record say about flash point for CC1(C)C2CC[C@@]1(C)C(=O)C2 [(1R)-1,7,7-trimethylbicyclo[2.2.1]heptan-2-one] ?
A) 64.00

Q) So what does the record say about flash point for Oc1ccccc1Cl ?
A) 64.00

Q) So what does the record say about flash point for C=CC ?
A) -108.00

Q) So what does the record say about flash point for CCCCC[Si](Cl)(Cl)Cl ?
A) 63.00

Q) So what does the record say about flash point for ClCC=CCCl ?
A) 53.00

Q) So what does the record say about flash point for CCCCOC(C)=O [butyl acetate] ?
A) 22.00

Q) So what does the record say about flash point for CC1COC(C)CO1 (centres undefined) ?
A) 24.00

Q) So what does the record say about flash point for CCCC=NO [N-butylidenehydroxylamine] ?
A) 58.00

Q) So what does the record say about flash point for NC(=O)OCCO [2-hydroxyethyl carbamate] ?
A) 188.00

Q) So what does the record say about flash point for Cc1cccc(N)c1C ?
A) 97.00

Q) So what does the record say about flash point for CCCCC(CC)COC(=O)CCCCC(=O)OCC(CC)CCCC (centres undefined) [bis(2-ethylhexyl) hexanedioate] ?
A) 196.00

Q) So what does the record say about flash point for C=COCCCl ?
A) 16.00

Q) So what does the record say about flash point for O=CC(Cl)(Cl)Cl ?
A) 75.00

Q) So what does the record say about flash point for CC(C)c1ccccc1 ?
A) 36.00

Q) So what does the record say about flash point for N#CCCC#N ?
A) 132.00

Q) So what does the record say about flash point for O=S1(=O)CC=CC1 [2,5-dihydrothiophene 1,1-dioxide] ?
A) 113.00

Q) So what does the record say about flash point for Cc1ccc(N)cc1C ?
A) 98.00

Q) So what does the record say about flash point for CCC(=O)CC(C)CC (centres undefined) ?
A) 43.00

Q) So what does the record say about flash point for O=C(Cl)CCl [2-chloroacetyl chloride] ?
A) 100.00

Q) So what does the record say about flash point for Cc1ccc(N)cc1N ?
A) 149.00

====

PARAMETER MEASURED: flash point (°C)
Give the value, in units of °C, as a plain number.

Q) So what does the record say about flash point for CC1=CC(=O)CC(C)(C)C1 ?
A) 84

Q) So what does the record say about flash point for CC(=O)CCC(C)C ?
A) 36

Q) So what does the record say about flash point for C=CCCCCCCCCCC ?
A) 73

Q) So what does the record say about flash point for CCCc1ccc(N)cc1 ?
A) 103

Q) So what does the record say about flash point for CC1CCC(=O)C1 (stereo unspecified) ?
A) 34

Q) So what does the record say about flash point for CCOC=O [ethylformate] ?
A) -19

Q) So what does the record say about flash point for CN(C)C=O [N,N-dimethylformamide] ?
A) 57

Q) So what does the record say about flash point for CCC#N ?
A) 6

Q) So what does the record say about flash point for CCN(C)C ?
A) -36

Q) So what does the record say about flash point for CC1(C)CCCCC1 ?
A) 7

Q) So what does the record say about flash point for CCCC(=O)CC ?
A) 23

Q) So what does the record say about flash point for COC(C)C ?
A) -47

Q) So what does the record say about flash point for CCCCNC ?
A) 2

Q) So what does the record say about flash point for Cc1ccccc1C(C)C ?
A) 50

Q) So what does the record say about flash point for CCCC(O)CO (stereo unspecified) ?
A) 105

Q) So what does the record say about flash point for C1COCCO1 ?
A) 11

Q) So what does the record say about flash point for CCCCCCCCCc1ccccc1 ?
A) 117

Q) So what does the record say about flash point for CCCCCCCOC(C)=O [heptylacetate] ?
A) 67

Q) So what does the record say about flash point for SCCCCl ?
A) 43

Q) So what does the record say about flash point for CCC(C)c1ccc(N)cc1 (stereo unspecified) ?
A) 108

Q) So what does the record say about flash point for CC(=O)CCC(C)=O ?
A) 78

====

I would appreciate it if you labelled entries condition met when flash point is 60 °C or higher, otherwise condition not met.

Q) Given the entry C#CC(C)(C)C , answer whether its flash point meets or surpasses 60 °C.
A) condition not met

Q) Given the entry CCCc1ccco1 , answer whether its flash point meets or surpasses 60 °C.
A) condition not met

Q) Given the entry CCc1cccc(N)c1 , answer whether its flash point meets or surpasses 60 °C.
A) condition met

Q) Given the entry C=Cc1ccc(F)cc1 , answer whether its flash point meets or surpasses 60 °C.
A) condition not met

Q) Given the entry OCCCCCO , answer whether its flash point meets or surpasses 60 °C.
A) condition met

Q) Given the entry CCO , answer whether its flash point meets or surpasses 60 °C.
A) condition not met

Q) Given the entry COC(C)(C)C , answer whether its flash point meets or surpasses 60 °C.
A) condition not met

Q) Given the entry C=CC1CC=CCC1 (configuration not stated) , answer whether its flash point meets or surpasses 60 °C.
A) condition not met

Q) Given the entry OCc1ccco1 , answer whether its flash point meets or surpasses 60 °C.
A) condition met

Q) Given the entry CCC(=O)OC(C)(C)C [tert-butylpropanoate] , answer whether its flash point meets or surpasses 60 °C.
A) condition not met

Q) Given the entry CCCCCC(=O)O , answer whether its flash point meets or surpasses 60 °C.
A) condition met

Q) Given the entry OCCO , answer whether its flash point meets or surpasses 60 °C.
A) condition met

Q) Given the entry CCCc1ccccc1O , answer whether its flash point meets or surpasses 60 °C.
A) condition met

Q) Given the entry CCCC(C)(C)CC , answer whether its flash point meets or surpasses 60 °C.
A) condition not met

Q) Given the entry CC(C)C#N , answer whether its flash point meets or surpasses 60 °C.
A) condition not met

Q) Given the entry CCCCCC#CC(=O)OC [methyl2-octynoate] , answer whether its flash point meets or surpasses 60 °C.
A) condition met

Q) Given the entry C=CCCCCO , answer whether its flash point meets or surpasses 60 °C.
A) condition not met

Q) Given the entry CC1CC=CCC1 (configuration not stated) , answer whether its flash point meets or surpasses 60 °C.
A) condition not met

Q) Given the entry CCCCN(CCCC)CCCC , answer whether its flash point meets or surpasses 60 °C.
A) condition met

Q) Given the entry CCC[N+](=O)[O-] , answer whether its flash point meets or surpasses 60 °C.
A) condition not met

Q) Given the entry CCCCCCCCCO , answer whether its flash point meets or surpasses 60 °C.
A) condition met

Q) Given the entry CCOC(=O)CC(C)=O [ethylacetoacetate] , answer whether its flash point meets or surpasses 60 °C.
A) condition met

Q) Given the entry Cc1ccc(F)cc1C , answer whether its flash point meets or surpasses 60 °C.
A) condition not met

Q) Given the entry CCCCCCCCCCCOC(C)=O [undecylacetate] , answer whether its flash point meets or surpasses 60 °C.
A) condition met

Q) Given the entry CC(C)(C)C1CCC(=O)C1 (configuration not stated) , answer whether its flash point meets or surpasses 60 °C.
A) condition met

Q) Given the entry CCC1CCCCCC1=O (configuration not stated) , answer whether its flash point meets or surpasses 60 °C.
A) condition met

Q) Given the entry C#CCCCCCC , answer whether its flash point meets or surpasses 60 °C.
A) condition not met

Q) Given the entry CCCCCCCCOC=O [octylformate] , answer whether its flash point meets or surpasses 60 °C.
A) condition met

Q) Given the entry O=Cc1ccccc1 , answer whether its flash point meets or surpasses 60 °C.
A) condition met

Q) Given the entry CCCCC(O)CO (configuration not stated) , answer whether its flash point meets or surpasses 60 °C.
A) condition met

Q) Given the entry OC1CCCCC1 , answer whether its flash point meets or surpasses 60 °C.
A) condition met

Q) Given the entry CC(C)CC(C)CC(C)C , answer whether its flash point meets or surpasses 60 °C.
A) condition not met

Q) Given the entry CCCCCC(C)(C)CC , answer whether its flash point meets or surpasses 60 °C.
A) condition not met

Q) Given the entry CCCCCOCCCCC , answer whether its flash point meets or surpasses 60 °C.
A) condition not met

Q) Given the entry N#Cc1ccccc1 , answer whether its flash point meets or surpasses 60 °C.
A) condition met

Q) Given the entry CCCCCC#CCCCCl , answer whether its flash point meets or surpasses 60 °C.
A) condition met

Q) Given the entry CCOC(=O)OCC [diethylcarbonate] , answer whether its flash point meets or surpasses 60 °C.
A) condition not met

Q) Given the entry CC#CCCC , answer whether its flash point meets or surpasses 60 °C.
A) condition not met

Q) Given the entry C/C=C\CCCC [cis-2-heptene] , answer whether its flash point meets or surpasses 60 °C.
A) condition not met

Q) Given the entry C/C=C/C(C)C [trans-4-methyl-2-pentene] , answer whether its flash point meets or surpasses 60 °C.
A) condition not met

Q) Given the entry CC(C)Cc1ccccc1 , answer whether its flash point meets or surpasses 60 °C.
A) condition not met

Q) Given the entry CCc1cccs1 , answer whether its flash point meets or surpasses 60 °C.
A) condition not met

Q) Given the entry CCOC(=O)C(C)C [ethyl2-methylpropanoate] , answer whether its flash point meets or surpasses 60 °C.
A) condition not met

Q) Given the entry CCCC(C)(C)C(C)C , answer whether its flash point meets or surpasses 60 °C.
A) condition not met

Q) Given the entry Cc1cccc(Cl)c1 , answer whether its flash point meets or surpasses 60 °C.
A) condition not met

Q) Given the entry c1ccc(Cc2ccccc2)cc1 , answer whether its flash point meets or surpasses 60 °C.
A) condition met
